B1: LINE1-full (parent)
chain: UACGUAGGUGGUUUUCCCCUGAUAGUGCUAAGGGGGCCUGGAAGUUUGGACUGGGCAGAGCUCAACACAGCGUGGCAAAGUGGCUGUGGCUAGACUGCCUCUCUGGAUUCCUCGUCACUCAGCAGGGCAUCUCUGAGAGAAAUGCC

- Variants of: B1
- method: self-cleavage, relative activity (ratio to wild type); higher = more cleavage; in vitro, sequencing; the parent is a self-cleaving ribozyme
Outcome: t for self-cleavage of at least 0.5; f for anything lower.

# variant, group
rows = [
    ("A57G C113U", "f"),
    ("U1C U13C", "t"),
    ("A92U U112C", "f"),
    ("A64G A138G", "f"),
    ("A22G C98U", "t"),
    ("A79G G89A", "f"),
    ("U14A U26A", "t"),
    ("G53A U96A", "f"),
    ("U20C A140U", "t"),
    ("U5A A42G", "t"),
    ("U15C G144A", "t"),
    ("U14A U29A", "t"),
    ("G40A U52C", "t"),
    ("C63A", "f"),
    ("C51U A59G", "f"),
    ("U12C A24G", "t"),
    ("A6U G36A", "t"),
    ("A78U U100C", "t"),
    ("A121G A138U", "t"),
    ("U87A A141U", "f"),
    ("U85C U119C", "f"),
]
